Values compiled from a polymer gas permeability compilation.

Attribute: N2 permeability
Experimental Readout: N2 permeability (Barrer)

*Oc1ccc(C(C)(C)c2ccc(Oc3ccc(S(=O)(=O)c4ccc(*)cc4)cc3)c(C)c2)cc1C (repeat unit) : 0.091
*CC(*)(C)c1ccccc1 (repeat unit) : 0.15
*Nc1ccc(C(c2ccc(NC(=O)c3cccc(C(*)=O)c3)cc2)(C(F)(F)F)C(F)(F)F)cc1 (repeat unit) : 0.42
*C(=C(*)c1ccc2c(c1)C(C)(C)c1cc(Br)ccc1-2)c1ccccc1 (repeat unit) : 1100

----------
Experimental Readout: N2 permeability (Barrer)

*Oc1ccc(C(C)(C)c2ccc(Oc3ccc(C(=O)c4ccc(C(C)(C)c5ccc(C(=O)c6ccc(*)cc6)cc5)cc4)cc3)cc2)cc1 (repeat unit) : 0.21
*Oc1cc2c(cc1O*)C1(CC2(C)C)CC(C)(C)c2cc3c(cc21)Oc1c(c(C(F)(F)F)c(*)c(*)c1S(=O)(=O)c1ccccc1)O3 (repeat unit) : 116
*c1ccc(-c2ccc(Oc3ccc4c(c3)C(C)(c3ccc(Oc5ccc(-c6ccc(-n7c(=O)c8cc9c(=O)n(*)c(=O)c9cc8c7=O)cc6)cc5C(F)(F)F)cc3)CC4(C)C)c(C(F)(F)F)c2)cc1 (repeat unit) : 2.36
*c1ccc(Oc2ccc(C3(c4ccc(Oc5ccc(N6C(=O)c7ccc(C(c8ccc9c(c8)C(=O)N(*)C9=O)(C(F)(F)F)C(F)(F)F)cc7C6=O)cc5C(F)(F)F)cc4)c4ccccc4-c4ccccc43)cc2)c(C(F)(F)F)c1 (repeat unit) : 5.2
*c1ccc(Oc2ccc(N3C(=O)c4ccc(Oc5ccc6c(c5)C(=O)N(*)C6=O)cc4C3=O)cc2)cc1 (repeat unit) : 0.026

----------
The entries below are paired with their reported CH4 permeability.
Experimental Readout: CH4 permeability (Barrer)

*OC(=O)c1ccc(C(=O)Oc2c(C)cc(C(C)(C)c3cc(C)c(O*)c(C)c3)cc2C)cc1 (repeat unit) : 1.32
*CC(*)c1ccc(OC)cc1 (repeat unit) : 0.91
*c1ccc(C(C)(C)c2ccc(N3C(=O)c4ccc(Oc5ccc(Oc6ccc7c(c6)C(=O)N(*)C7=O)cc5)cc4C3=O)cc2)cc1 (repeat unit) : 0.0692
*Oc1ccc(Oc2ccc(C(=O)c3ccc(*)cc3)cc2)c(-c2cccc(C)c2)c1 (repeat unit) : 0.024

----------
Experimental Readout: N2 permeability (Barrer)

*/C(C)=C(/*)[Si](C)(C)C (repeat unit) : 6600
*CC(*)c1ccc(OC)cc1 (repeat unit) : 0.61
*O[Si](*)(C)CCCCCC (repeat unit) : 103
*Oc1ccc(C(C)(C)c2ccc(Oc3ccc(C(=O)c4ccc(*)cc4)cc3)cc2)cc1 (repeat unit) : 0.16
*CCCCO* (repeat unit) : 8.85
*Oc1c(Br)cc(C(C)(C)c2cc(Br)c(OC(=O)c3cccc(C(*)=O)c3)c(Br)c2)cc1Br (repeat unit) : 0.179
*CC(*)C (repeat unit) : 0.5
*Oc1ccc(S(=O)(=O)c2ccc(Oc3ccc(C(C)(C)c4ccc(*)cc4)cc3CN)cc2)cc1 (repeat unit) : 0.11
*Oc1ccc(C(c2ccc(Oc3ccc(C(=O)c4ccc(C(C)(C)c5ccc(C(=O)c6ccc(*)cc6)cc5)cc4)cc3)cc2)(C(F)(F)F)C(F)(F)F)cc1 (repeat unit) : 0.44
*C(=C(*)c1ccc(CCCC)cc1)c1ccccc1 (repeat unit) : 11
*c1ccc(C(c2ccc(N3C(=O)c4ccc(-c5ccc6c(c5)C(=O)N(*)C6=O)cc4C3=O)cc2)(C(F)(F)F)C(F)(F)F)cc1 (repeat unit) : 0.979
*C(C)=C(*)CC(C)C (repeat unit) : 93
*c1cccc(Oc2cccc(-n3c(=O)c4cc5c(=O)n(*)c(=O)c5cc4c3=O)c2)c1 (repeat unit) : 0.0181
*c1c(C)cc(C)c(N2C(=O)c3ccc(C(=O)c4ccc5c(c4)C(=O)N(*)C5=O)cc3C2=O)c1C (repeat unit) : 1
*Cc1ccc(C*)cc1 (repeat unit) : 0.047
*C(=C(*)c1cccc([Si](C)(C)C)c1)c1ccccc1 (repeat unit) : 610
*/C=C/c1ccc(*)cc1[Si](C)(C)CCCCCCCC (repeat unit) : 3.9
*O[Si](*)(C)CC (repeat unit) : 160
*Oc1ccc(C(c2ccc(Oc3ccc(S(=O)(=O)c4ccc(*)cc4)cc3)cc2)c2ccccc2C(=O)O)cc1 (repeat unit) : 0.0437

----------
CH4 permeability values, listed per item
Experimental Readout: CH4 permeability (Barrer)

*Oc1ccc(Oc2ccc(C(=O)c3ccc(*)cc3)cc2)cc1 (repeat unit) : 0.0311
*C(=C(*)c1ccc2c(c1)C(C)(C)CC2(C)C)c1ccc(Cl)cc1 (repeat unit) : 22700
*Oc1ccc(S(=O)(=O)c2ccc(Oc3c(C)cc(-c4cc(C)c(*)c(C)c4)cc3C)cc2)cc1 (repeat unit) : 1.27
*CC(*)(C)C(=O)OCCOCC (repeat unit) : 1.23
*Oc1ccc(C(c2ccc(OC(*)=O)cc2)(C(F)(F)F)C(F)(F)F)cc1 (repeat unit) : 1.05
*c1ccc(C2(c3ccc(*)cc3)c3ccccc3-c3ccccc32)cc1 (repeat unit) : 0.84
*c1ccc(Oc2cccc(N3C(=O)c4ccc(C(c5ccc6c(c5)C(=O)N(*)C6=O)(C(F)(F)F)C(F)(F)F)cc4C3=O)c2)cc1 (repeat unit) : 0.125
*OC(=O)Oc1ccc(C2(c3ccc(*)cc3)CC3CCC2C3)cc1 (repeat unit) : 0.48
*Oc1ccc(C(C)(C)c2ccc(OC(=O)c3ccc(C(*)=O)cc3)cc2)cc1 (repeat unit) : 0.678
*/C(C)=C(/*)[Si](C)(C)CCC (repeat unit) : 44
*c1ccc(Oc2ccc(Oc3ccc(Oc4ccc(N5C(=O)c6ccc(-c7ccc8c(c7)C(=O)N(*)C8=O)cc6C5=O)cc4)cc3)cc2)cc1 (repeat unit) : 0.0305
*C(F)(F)C(*)(F)F (repeat unit) : 10
*c1ccc(-c2ccc(Oc3ccc(C4(c5ccc(Oc6ccc(-c7ccc(N8C(=O)c9ccc(Oc%10ccc%11c(c%10)C(=O)N(*)C%11=O)cc9C8=O)cc7)cc6C(F)(F)F)cc5)c5ccccc5C(=O)N4c4ccccc4)cc3)c(C(F)(F)F)c2)cc1 (repeat unit) : 0.84
*Oc1ccc(S(=O)(=O)c2ccc(Oc3ccc(C4(c5ccc(*)cc5)c5ccccc5-c5ccccc54)cc3)cc2)cc1 (repeat unit) : 0.531
*C(=C(*)c1ccc2c(c1)CCC2)c1ccccc1 (repeat unit) : 60
*C1C2CC(C1*)C([Si](C)(C)C)C2 (repeat unit) : 1090
*CC(*)(C)C(=O)OCC(F)(F)C(F)(F)C(F)(F)C(F)(F)C(F)(F)C(F)(F)C(F)(F)F (repeat unit) : 14

----------
Recorded H2 permeability for the following compounds
Experimental Readout: H2 permeability (Barrer)

*c1ccc(-c2ccc(C(*)(C(F)(F)F)C(F)(F)F)cc2)cc1 (repeat unit) : 470
*c1ccc(-c2ccc(-c3ccc(C(*)(c4ccccc4)C(F)(F)F)cc3)cc2)cc1 (repeat unit) : 126
*Oc1c(C)cc(C(C)(C)c2cc(C)c(OC(=O)c3cc(C(*)=O)cc(C(C)(C)C)c3)c(C)c2)cc1C (repeat unit) : 96
*Oc1ccc(C(C)(C)c2ccc(Oc3ccc(C(=O)c4ccc(C(C)(C)c5ccc(C(=O)c6ccc(*)cc6)cc5)cc4)cc3)cc2)cc1 (repeat unit) : 12.4
*C(=C(*)c1ccc(O[Si](C)(C)C(C)(C)C)cc1)c1ccc(F)cc1 (repeat unit) : 315
*C(=C(*)c1cccc(O[Si](C)(C)C(C)(C)C)c1)c1ccc(C(C)(C)C)cc1 (repeat unit) : 3900
*C(=C(*)c1ccc2c(c1)CCC2)c1ccc([Si](C)(C)C)cc1 (repeat unit) : 1100
*C(=C(*)c1ccc2c(c1)C(C)(C)c1ccccc1-2)c1ccccc1 (repeat unit) : 8100

----------
Reported N2 permeability values follow for various molecules
Experimental Readout: N2 permeability (Barrer)

*Oc1cc2c(cc1O*)C1(CC2(C)C)CC(C)(C)c2cc3c(cc21)Oc1c(C#N)c(*)c(*)c(C#N)c1O3 (repeat unit) : 256
*c1ccc(-c2ccc(Oc3ccc(C4(c5ccc(Oc6ccc(-c7ccc(N8C(=O)c9ccc(C(=O)c%10ccc%11c(c%10)C(=O)N(*)C%11=O)cc9C8=O)cc7)cc6C(F)(F)F)cc5)c5ccccc5C(=O)N4c4ccccc4)cc3)c(C(F)(F)F)c2)cc1 (repeat unit) : 0.83
*c1ccc(Oc2ccc(N3C(=O)c4cc(Oc5ccc(C(C)(C)C)cc5)c(-c5cc6c(cc5Oc5ccc(C(C)(C)C)cc5)C(=O)N(*)C6=O)cc4C3=O)cc2)cc1 (repeat unit) : 2.95
*OC1OC(OC(C)=O)C(*)C(O)C1OC(C)=O (repeat unit) : 0.14
*c1ccc2c(c1)Cc1cc(N3C(=O)c4ccc(C(c5ccc6c(c5)C(=O)N(*)C6=O)(C(F)(F)F)C(F)(F)F)cc4C3=O)ccc1-2 (repeat unit) : 1.27
*C(=O)c1ccc(C(c2ccc3c(c2)C(=O)n2c-3nc3cc4nc(*)n(*)c4cc32)(C(F)(F)F)C(F)(F)F)cc1* (repeat unit) : 2.58
